Ref: paper PMC7350150

- TEST DESCRIPTION: PK study in dog
- Type: in vivo
- CONDITION SUMMARY: dog, plasma
EXPERIMENTAL READOUT: half-life

Prompt: Determine its reported half-life: C[C@]12CCCN1CC1=NNC(=O)c3cc(F)cc4[nH]c2c1c34
Response: 3.6 h

###

- TEST DESCRIPTION: PK study in dog
- Format: in vivo
- CONDITION SUMMARY: dog, plasma, oral
EXPERIMENTAL READOUT: bioavailability (%)
Return type: number; implicit unit %.

Prompt: Give recorded bioavailability. C[C@]12CCCN1CC1=NNC(=O)c3cc(F)cc4[nH]c2c1c34
Response: 73

###

- TEST DESCRIPTION: Brain penetration of PARP inhibitors in mice
- Assay type: in vivo, male C57 mice
- CONDITION SUMMARY: male, C57, mouse, brain and plasma, oral, Brain/Plasma, concentration, 1 h; single p.o. dose: Pamiparib 10, Talazoparib 3, Olaparib 50, Niraparib 50 mg/kg
EXPERIMENTAL READOUT: Kp at 1 h

Prompt: Report measured Kp at 1 h; entry is NC(=O)c1cccc2cn(-c3ccc([C@@H]4CCCNC4)cc3)nc12 [Niraparib, niraparib]
Response: 0.06

###

- Tested on: intracellular PAR levels in HeLa cells
- TEST DESCRIPTION: Inhibition of H2O2-induced PAR synthesis
- Assay type: cell-based
- CONDITION SUMMARY: Homo sapiens, 18 h, read-out: IC50 of intracellular PARP activity
EXPERIMENTAL READOUT: IC50 (nM)
A number alone suffices; assume nM.

Prompt: Retrieve IC50 measured for C[C@]12CCCN1CC1=NNC(=O)c3cc(F)cc4[nH]c2c1c34 [Pamiparib] and print it.
Response: 0.24

###

- TEST DESCRIPTION: PK study in rat
- Type: in vivo
- CONDITION SUMMARY: rat, plasma, intravenous, 2 mg/kg
EXPERIMENTAL READOUT: Vd (L/kg)
Your answer is read as L/kg, so omit the unit and give the number.

Prompt: In one line, give reported Vd of the entry C[C@]12CCCN1CC1=NNC(=O)c3cc(F)cc4[nH]c2c1c34 .
Response: 6.9

###

- TEST DESCRIPTION: PK study in healthy mice
- Type: in vivo, Mouse
- CONDITION SUMMARY: mouse, plasma, intravenous, 1 mg/kg
EXPERIMENTAL READOUT: Vd

Prompt: Could you please provide reported Vd for C[C@]12CCCN1CC1=NNC(=O)c3cc(F)cc4[nH]c2c1c34 ? Thanks!
Response: 5.7 L/kg

###

- System: intracellular PARP activity in H2O2-treated SF-295 cells
- TEST DESCRIPTION: Inhibition of H2O2-induced PAR synthesis
- Type: cell-based
- CONDITION SUMMARY: Homo sapiens, SF-295, read-out: IC50 of intracellular PARP activity
EXPERIMENTAL READOUT: IC50

Prompt: Give me measured IC50, please, for this compound: C[C@]12CCCN1CC1=NNC(=O)c3cc(F)cc4[nH]c2c1c34
Response: 170 pM

###

- Test system: NCI-H1048
- TEST DESCRIPTION: Pamiparib and TMZ combination, anti-proliferation
- Assay type: cell-based
- CONDITION SUMMARY: Homo sapiens, NCI-H1048, read-out: EC50 of TMZ single agent
EXPERIMENTAL READOUT: EC50
Report field: quantity (unit follows the number).

Prompt: Tell me EC50 reported for Cn1nnc2c(C(N)=O)ncn2c1=O [TMZ, Temozolomide]
Response: 153 µM
